This listing pairs sequences with measured folding stability dG unfold.
Test: folding stability dG unfold (combined trypsin and chymotrypsin); higher = more stable
experimental readout: folding stability dG unfold (kcal/mol)

| ordered residues | readout units | qualifier operator | reported |
| --- | --- | --- | --- |
| SAGGSAGGDGLELKLTFTIPVTARSPLGGSYPVYLRLTLTYRLDDPRWELDLYALDPNGNWYPVSAGGSAGG [r6_393_TrMRF] | kcal/mol | = | 4.84 |
| SAGGSMSTSTLVRREIASVDPETGLRVVRVEVEEVDYGFDPKTGTVLGVSPVSPVSESVLLLPADAPPESAG [r5_903_JUSTAS] | kcal/mol | = | -0.286 |
| SAGGLEEKILEAVKNMSPEEPVVEREVELPDGKLKVTVTRDGLPYTVTITRTNPDGTTTTTTTTILLSAGGS [r16_642_JUSTAS] | kcal/mol | = | 2.34 |
| SAGGSAGGSMFKVIVESEDPEKALEEAKALIEKIEEEGIGEIKKFEFLIVPKDIPEYKKLKEKSAGGSAGGS [r12_551_TrMRF] | kcal/mol | = | -0.0656 |
| SAGGDPPNIEVVPYRVKFGGKPIPIQVFVMPNGQTIVRIKFPNGKKGWMPADDLDELLKNPFEIERVSAGGS [r16_105_TrROS] | kcal/mol | = | 1.11 |
| SAGGYPAEIEASNVKPEELKKAIEDAPWAKELDVEVEDSSPDGSVKAKFKANSKAEVKRFEKAVKDAFSAGG [r13_580_TrMRF] | kcal/mol | < | -1 |
| SAGGRLVEAIREANKQGKPMSREEIKDKIKDAIREQNEENGGKIPEIEITDIHWNPDNGYVPIEIKVSAGGS [r16_365_TrROS] | kcal/mol | = | -0.561 |

Source of measurements: the supplement of paper PMC12764529
